Please provide measured IC50 for the entries that follow.
subject-of-test: aggrecanase-1 (Homo sapiens, UniProt O75173)
Sequence (O75173 213-837, species assumed): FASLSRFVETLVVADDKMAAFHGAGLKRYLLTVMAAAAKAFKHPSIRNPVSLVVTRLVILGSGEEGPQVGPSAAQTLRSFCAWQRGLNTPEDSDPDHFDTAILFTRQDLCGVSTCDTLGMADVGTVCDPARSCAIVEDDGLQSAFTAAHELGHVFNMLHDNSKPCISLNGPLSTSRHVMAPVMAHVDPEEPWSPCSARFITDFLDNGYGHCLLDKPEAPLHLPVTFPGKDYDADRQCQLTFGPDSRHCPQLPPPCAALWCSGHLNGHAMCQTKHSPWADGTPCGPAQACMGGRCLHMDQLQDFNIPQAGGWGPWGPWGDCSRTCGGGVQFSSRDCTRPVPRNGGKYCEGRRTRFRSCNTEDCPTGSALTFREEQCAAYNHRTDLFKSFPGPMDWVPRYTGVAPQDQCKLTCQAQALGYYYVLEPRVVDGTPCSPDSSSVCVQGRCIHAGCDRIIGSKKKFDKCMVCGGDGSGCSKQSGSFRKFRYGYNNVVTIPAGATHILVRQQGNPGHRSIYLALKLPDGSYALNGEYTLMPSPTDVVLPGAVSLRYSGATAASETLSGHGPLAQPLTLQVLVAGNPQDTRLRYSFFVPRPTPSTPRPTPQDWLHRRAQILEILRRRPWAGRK
protocol-description: Aggrecanase-1 inhibitory action (Particle Assay, GAG release from aggrecan-containing polyacrylamide particles)
Type: biochemical
stated-conditions: aggrecanase-1 inhibitory action; read-out: IC50 AG1 (Experimental Example 1)

Input: // fetch IC50 given entry O=C(O)C1(NS(=O)(=O)c2ccc3c(c2)oc2cc(Cl)ccc23)CC1c1ccccc1 (centres unmarked)
Output: < 100 nM

Input: Report IC50 for O=C(O)C1(NS(=O)(=O)c2ccc(-c3ccc(O)cc3)s2)CC1c1ccccc1 (centres unmarked)
Output: < 1000 nM

Input: # return recorded IC50 for input COC(=O)Cc1cccc(C2CC2(NS(=O)(=O)c2ccc(-c3cc(C(F)(F)F)on3)s2)C(=O)O)c1 (centres unmarked)
Output: < 1000 nM

Input: Give the value of IC50 reported for the following: C=CC1CC1(NS(=O)(=O)c1ccc(-c2ccc(Cl)cc2)s1)C(=O)O (centres unmarked)
Output: ≥ 1000 nM

Input: Quote IC50 reported for COCc1cc(-c2ccc(S(=O)(=O)N[C@@]3(C(=O)O)C[C@@H]3c3ccccc3)s2)no1 please.
Output: < 1000 nM

Input: Quickly give me recorded IC50 for O=C(O)[C@]1(NS(=O)(=O)c2ccc(-c3ccc(Cl)cc3)cc2)C[C@@H]1c1ccccc1
Output: < 1000 nM

Input: Specify measured IC50 for O=C(O)[C@]1(NS(=O)(=O)c2ccc(-c3cc(C(F)(F)F)no3)s2)C[C@@H]1c1ccccc1 .
Output: < 1000 nM

Input: For the molecule Cc1nc(-c2ccc(S(=O)(=O)N[C@@]3(C(=O)O)C[C@@H]3c3ccccc3)s2)cs1 , give its measured IC50 value.
Output: ≥ 1000 nM
